This collection of values is drawn from patent US20250195677A1.

Recorded luminescence, hPD-1/hPD-L1 blockade bioassay, one value per entry.
Measurement Target: human PD-1 on Jurkat Effector cells (Promega PD-1/PD-L1 blockade bioassay) (human, UniProt Q15116 25-288)
Sequence (Q15116 25-288): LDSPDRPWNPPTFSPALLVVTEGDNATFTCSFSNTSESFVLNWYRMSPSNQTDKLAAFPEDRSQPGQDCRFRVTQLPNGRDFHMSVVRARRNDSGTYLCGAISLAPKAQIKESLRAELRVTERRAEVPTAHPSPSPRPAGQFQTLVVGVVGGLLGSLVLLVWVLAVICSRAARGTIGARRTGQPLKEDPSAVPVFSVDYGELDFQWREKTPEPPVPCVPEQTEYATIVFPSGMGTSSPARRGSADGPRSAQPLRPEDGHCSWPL
Test Protocol: cell-based or functional assay

{"columns": ["Binder", "Result"],
 "data": [
  ["OMC.2.C6-hIgG4 (antibody, V domains shown) VH: EVQLLESGGGLVQPGGSLRLSCTASGFTFSSYEMQWVRQAPGKGLEWVLGITSSSSHIFYADSVKGRFTVSRDNSKNTLYLQMNSLRAEDTAVYYCTKDLNSYYGLDVWGQGTTVTVSS VL: QSVMTQPPSASGTPGQRVTISCSGSTSNLGNNYVSWYQHLPGTAPKLLIYGNDQRPSGVPDRFSGSKSGTSASLAISGLQSDDEADYYCSSWDASLNVWVFGGGTKLTVLG", "~3000 RLU"],
  ["OMC.1.B6-hIgG4 (antibody, V domains shown) VH: EVQLLESGGGLVQPGGSLRLSCAASGFTFSSNYMSWVRQAPGKGLEWVSAISSSGGTIFYADSVKGRFTISRDNSKNTLYLQMNSLRAEDTAVYYCAKHKWNAVYYDGMDVWGQGTTVTVSS VL: QSVLTQPPSASGTPGQRVTISCSGSNSNIGRNLVNWYQQLPGTAPKLLIYTIDQRPSGVPDRFSGSKSGTSASLVISGLQSEDEADYYCAAWDGSLNAWVFGGGTKLTVLG", "~3000 RLU"]
]}

Now consider the entry below.
Q: Consider the binder shown here: 1D5-hIgG4 (antibody, V domains shown) VH: EVQLLESGGGLVQPGGSLRLSCVGSGFNFKDYCMTWVRQAPGKGLEWVSAIVYSGGSTYYADSVKGRFTISRDNSKNTLYLQMNSLRAEDTAVYYCAKYTRGSYFYDAMDVWGQGTTVTVSS VL: EIVLTQSPGTLSLSPGERATLSCRASQSIGRSFLAWYQQKPGQAPRLLIYDASTRATDIPDRFSGSGSGTEFTLTISSLQSEDFAVYYCQQYYDWPPLTFGGGTKVEIKR What is its recorded luminescence, hPD-1/hPD-L1 blockade bioassay?
Ans: ~3000 RLU
